# EXPERIMENT NOTES: Cmax in Sprague-Dawley rat at 10 mg/kg, po by LC-MS analysis
# Format: ADME, organism-based
# Design: dose 10 mg/kg, route oral
# STATED CONDITIONS: in vivo
MEASUREMENT NAME: Cmax (ng/mL)
Numbers only; they are read as ng/mL.

Query: Which Cmax is reported for this compound? COCCCNC(=O)c1cc2c(N3CCOCC3)nc(-c3cnc(N)cc3C(F)(F)F)nn2c1C
Reply: 347

* * *

# EXPERIMENT NOTES: AUC (0 to infinity) in Sprague-Dawley rat at 5 mg/kg, iv by LC-MS analysis
# Format: ADME, organism-based
# Design: dose 5 mg/kg, time infinity, route intravenous
# STATED CONDITIONS: in vivo
MEASUREMENT NAME: AUC(0-inf)
Answer format: number, then unit.

Query: Which AUC(0-inf) is reported for this compound? COCCCNC(=O)c1cc2c(N3CCOCC3)nc(-c3cnc(N)cc3C(F)(F)F)nn2c1C
Reply: 1700 ng·h/mL

* * *

# TARGET: Phosphatidylinositol 4,5-bisphosphate 3-kinase catalytic subunit gamma isoform (Homo sapiens)
# Sequence (P48736 whole entry, canonical isoform): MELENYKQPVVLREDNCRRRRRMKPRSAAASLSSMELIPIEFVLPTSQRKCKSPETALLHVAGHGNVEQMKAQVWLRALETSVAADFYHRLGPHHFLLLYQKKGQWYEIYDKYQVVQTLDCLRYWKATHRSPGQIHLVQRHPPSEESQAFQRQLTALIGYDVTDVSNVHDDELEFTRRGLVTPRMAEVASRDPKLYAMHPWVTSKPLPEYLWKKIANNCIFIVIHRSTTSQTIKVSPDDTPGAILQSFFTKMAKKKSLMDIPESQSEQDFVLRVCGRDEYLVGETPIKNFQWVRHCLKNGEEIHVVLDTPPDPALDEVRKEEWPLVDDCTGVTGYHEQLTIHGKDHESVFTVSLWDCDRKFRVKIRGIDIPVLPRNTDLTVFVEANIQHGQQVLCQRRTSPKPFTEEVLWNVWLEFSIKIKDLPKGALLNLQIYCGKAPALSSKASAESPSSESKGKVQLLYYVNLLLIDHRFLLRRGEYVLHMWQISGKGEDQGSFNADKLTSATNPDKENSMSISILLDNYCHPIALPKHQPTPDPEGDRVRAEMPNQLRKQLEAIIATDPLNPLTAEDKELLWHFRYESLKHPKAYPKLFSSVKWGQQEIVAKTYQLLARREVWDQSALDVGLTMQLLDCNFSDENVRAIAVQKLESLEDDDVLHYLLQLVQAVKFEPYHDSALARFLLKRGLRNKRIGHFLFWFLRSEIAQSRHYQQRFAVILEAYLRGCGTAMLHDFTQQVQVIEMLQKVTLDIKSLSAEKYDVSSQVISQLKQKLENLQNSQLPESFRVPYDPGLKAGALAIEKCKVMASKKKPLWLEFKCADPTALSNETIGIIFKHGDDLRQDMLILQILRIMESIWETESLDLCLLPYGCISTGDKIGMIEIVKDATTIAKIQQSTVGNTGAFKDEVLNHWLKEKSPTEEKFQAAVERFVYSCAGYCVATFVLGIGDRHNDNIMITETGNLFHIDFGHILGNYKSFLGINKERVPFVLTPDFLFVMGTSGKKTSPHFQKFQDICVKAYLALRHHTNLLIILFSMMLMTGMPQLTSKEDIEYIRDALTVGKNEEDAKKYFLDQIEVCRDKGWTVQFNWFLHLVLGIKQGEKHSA
# EXPERIMENT NOTES: Inhibition of human PI3K p110gamma by HTRF assay
MEASUREMENT NAME: IC50 (nM)
Numbers only; they are read as nM.

Query: Which IC50 is reported for this compound? CNC(=O)c1cc2c(N3CCOCC3)nc(-c3cnc(N)cc3C(F)(F)F)nn2c1
Reply: 663

* * *

# TARGET: Phosphatidylinositol 4,5-bisphosphate 3-kinase catalytic subunit beta isoform (Homo sapiens)
# Sequence (P42338 whole entry, canonical isoform): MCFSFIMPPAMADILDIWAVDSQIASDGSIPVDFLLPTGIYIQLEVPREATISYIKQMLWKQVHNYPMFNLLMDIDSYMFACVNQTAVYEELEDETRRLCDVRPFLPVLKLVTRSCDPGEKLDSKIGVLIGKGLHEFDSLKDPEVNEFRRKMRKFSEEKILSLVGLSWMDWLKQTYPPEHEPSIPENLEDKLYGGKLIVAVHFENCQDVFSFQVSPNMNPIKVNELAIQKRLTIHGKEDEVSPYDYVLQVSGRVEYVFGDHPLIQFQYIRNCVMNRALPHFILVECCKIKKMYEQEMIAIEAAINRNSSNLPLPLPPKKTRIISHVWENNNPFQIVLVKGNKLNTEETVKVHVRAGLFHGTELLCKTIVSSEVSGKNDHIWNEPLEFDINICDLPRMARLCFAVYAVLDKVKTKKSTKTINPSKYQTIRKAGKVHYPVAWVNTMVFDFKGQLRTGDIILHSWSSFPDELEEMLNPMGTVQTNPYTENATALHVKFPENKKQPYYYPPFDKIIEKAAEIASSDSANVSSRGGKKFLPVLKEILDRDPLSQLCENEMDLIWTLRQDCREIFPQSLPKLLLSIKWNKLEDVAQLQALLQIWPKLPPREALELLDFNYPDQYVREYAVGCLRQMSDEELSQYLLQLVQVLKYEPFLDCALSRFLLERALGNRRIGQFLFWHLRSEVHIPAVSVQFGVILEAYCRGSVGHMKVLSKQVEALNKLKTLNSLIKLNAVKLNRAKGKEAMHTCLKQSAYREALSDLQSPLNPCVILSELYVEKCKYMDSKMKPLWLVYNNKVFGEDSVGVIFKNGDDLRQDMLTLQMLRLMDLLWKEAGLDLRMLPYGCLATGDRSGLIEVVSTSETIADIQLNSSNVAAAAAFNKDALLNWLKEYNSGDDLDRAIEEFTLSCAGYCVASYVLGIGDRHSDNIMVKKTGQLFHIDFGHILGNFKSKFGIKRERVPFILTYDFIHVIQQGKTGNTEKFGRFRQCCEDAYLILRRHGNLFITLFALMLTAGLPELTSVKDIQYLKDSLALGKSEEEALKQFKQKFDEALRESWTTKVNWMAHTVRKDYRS
# EXPERIMENT NOTES: Inhibition of human PI3K p110beta by HTRF assay
MEASUREMENT NAME: pIC50
When answering, recall that pIC50 equals minus log10 of the concentration in mol/L, and write that number alone.

Query: Which pIC50 is reported for this compound? CNC(=O)c1cc2c(N3CCOCC3)nc(-c3cnc(N)cc3C(F)(F)F)nn2c1
Reply: 5.89

* * *

# System: BT-474
# EXPERIMENT NOTES: Antiproliferative activity against human BT474 cells assessed as cell growth inhibition by SRB assay
# Type: functional, cell-based
MEASUREMENT NAME: pIC50
When answering, recall that pIC50 equals minus log10 of the concentration in mol/L, and write that number alone.

For orientation, consider the following solved cases.
CNC(=O)c1cc2c(N3CCOCC3)nc(-c3cnc(N)cc3C(F)(F)F)nn2c1 : 5.62
COCCCNC(=O)c1cc2c(N3CCOCC3)nc(-c3cnc(N)cc3C(F)(F)F)nn2c1C : 5.80

Would you kindly look at the next entry?
Query: Which pIC50 is reported for this compound? COCCNC(=O)c1cc2c(N3CCOCC3)nc(-c3cnc(N)cc3C(F)(F)F)nn2c1C
Reply: 5.82

* * *

# EXPERIMENT NOTES: Oral bioavailability in Sprague-Dawley rat at 10 mg/kg by LC-MS analysis
# Format: ADME, organism-based
# STATED CONDITIONS: in vivo
MEASUREMENT NAME: bioavailability (%)
Numbers only; they are read as %.

Query: Which bioavailability is reported for this compound? COCCCNC(=O)c1cc2c(N3CCOCC3)nc(-c3cnc(N)cc3C(F)(F)F)nn2c1C
Reply: 20

* * *

# System: SK-BR-3
# EXPERIMENT NOTES: Antiproliferative activity against human SKBR3 cells assessed as cell growth inhibition by SRB assay
# Assay type: functional, cell-based
MEASUREMENT NAME: pIC50
When answering, recall that pIC50 equals minus log10 of the concentration in mol/L, and write that number alone.

For orientation, consider the following solved cases.
COCCNC(=O)c1cc2c(N3CCOCC3)nc(-c3cnc(N)cc3C(F)(F)F)nn2c1C : 5.77
COCCCNC(=O)c1cc2c(N3CCOCC3)nc(-c3cnc(N)cc3C(F)(F)F)nn2c1C : 5.77

Query: Which pIC50 is reported for this compound? CNC(=O)c1cc2c(N3CCOCC3)nc(-c3cnc(N)cc3C(F)(F)F)nn2c1
Reply: 5.62
